Biological target: T1, EsCas13d, nuclease-dead (Eubacterium siraeum, UniProt B0MS50, R295A;H300A;R849A;H854A)
T1 sequence: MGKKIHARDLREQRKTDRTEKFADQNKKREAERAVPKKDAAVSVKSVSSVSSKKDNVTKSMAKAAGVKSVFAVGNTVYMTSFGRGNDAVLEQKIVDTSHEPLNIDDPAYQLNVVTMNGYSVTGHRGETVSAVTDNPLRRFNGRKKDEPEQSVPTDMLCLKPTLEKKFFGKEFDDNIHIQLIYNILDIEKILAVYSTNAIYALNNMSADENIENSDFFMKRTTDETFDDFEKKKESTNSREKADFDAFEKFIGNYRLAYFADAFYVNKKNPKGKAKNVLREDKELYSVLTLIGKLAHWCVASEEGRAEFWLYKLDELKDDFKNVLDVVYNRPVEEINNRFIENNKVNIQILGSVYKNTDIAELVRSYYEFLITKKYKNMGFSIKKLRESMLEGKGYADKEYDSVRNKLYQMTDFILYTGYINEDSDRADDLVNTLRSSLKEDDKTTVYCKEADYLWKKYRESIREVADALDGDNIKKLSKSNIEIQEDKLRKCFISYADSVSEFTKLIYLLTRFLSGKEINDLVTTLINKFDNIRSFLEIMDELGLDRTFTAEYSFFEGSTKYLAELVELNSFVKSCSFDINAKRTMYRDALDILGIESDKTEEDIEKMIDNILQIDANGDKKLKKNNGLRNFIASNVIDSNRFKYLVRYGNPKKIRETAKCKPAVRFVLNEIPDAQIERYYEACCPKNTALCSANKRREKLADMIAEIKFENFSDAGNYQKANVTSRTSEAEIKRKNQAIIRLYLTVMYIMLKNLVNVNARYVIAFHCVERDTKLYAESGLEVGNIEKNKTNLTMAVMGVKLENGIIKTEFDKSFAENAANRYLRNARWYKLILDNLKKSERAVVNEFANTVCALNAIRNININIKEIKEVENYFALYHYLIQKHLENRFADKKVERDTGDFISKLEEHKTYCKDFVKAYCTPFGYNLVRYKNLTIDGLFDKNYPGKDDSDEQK
Experiment: crRNA (strand 1, pre-loaded); Mg2+; 40 mM Tris-HCl pH 7.5, 150 mM NaCl, 6 mM MgCl2, 1 mM DTT, 0.1% Tween-20, 0.2 mg/ml BSA; 25 C; 10 min per concentration, then washed
Details: tags: His6-TwinStrep-SUMO cleaved; N-terminal SNAP kept (SNAP-Surface 488); label: 3' end held by stalled T7 RNA polymerase
measurement.type: Kd (nM)
Please give a number only; it is taken to be in nM.

Below, each entry is followed by its recorded Kd result.
{"columns": ["binder", "Kd / nM"],
 "data": [
  ["target 2 MT 5'PFS GAA 3'PFS UCG (mixed) RNA 1: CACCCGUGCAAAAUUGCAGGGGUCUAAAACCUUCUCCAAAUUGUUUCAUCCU RNA 2: GGGAAUGGAUCCACAUCUACGAAUUCGAAAGGAUGAAACAAUUUGGAGAAGUCGAGAUCGGAAGAGCACACGU", 13.1],
  ["target 1 U11A,A18G (mixed) RNA 1: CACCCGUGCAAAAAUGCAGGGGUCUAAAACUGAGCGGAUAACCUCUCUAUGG RNA 2: GGGAAUGGAUCCACAUCUACGAAUUCGUACCAUGGAGAGGAUAUCCGCUCACCGAGAUCGGAAGAGCACACGU", 80],
  ["target 2 MT 5'PFS UAG 3'PFS UCU (mixed) RNA 1: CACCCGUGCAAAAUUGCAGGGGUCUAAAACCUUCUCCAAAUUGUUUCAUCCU RNA 2: GGGAAUGGAUCCACAUCUACGAAUUCUAGAGGAUGAAACAAUUUGGAGAAGUCUAGAUCGGAAGAGCACACGU", 38]
]}

Now look at this one.
## Task Provide Kd value for the following binder: target 1 MT 5'PFS GCA 3'PFS AAA (mixed) RNA 1: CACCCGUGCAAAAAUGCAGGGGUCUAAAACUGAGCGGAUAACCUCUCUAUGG RNA 2: GGGAAUGGAUCCACAUCUACGAAUUCGCACCAUAGAGAGGUUAUCCGCUCAAAAAGAUCGGAAGAGCACACGU
## Result 31.5
